Data provenance: patent US20230391772A1

# Tested System: KRAS(G12C) (Homo sapiens, UniProt P01116, G12C)
# Sequence (P01116 1-188 isoform P01116-2 G12C): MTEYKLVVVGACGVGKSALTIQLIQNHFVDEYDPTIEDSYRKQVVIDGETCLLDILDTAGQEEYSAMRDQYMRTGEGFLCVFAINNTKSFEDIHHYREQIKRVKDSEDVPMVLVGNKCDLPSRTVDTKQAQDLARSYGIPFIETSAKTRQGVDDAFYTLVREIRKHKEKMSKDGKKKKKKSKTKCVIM
# Assay Overview: KRAS(G12C)/SOS1 homogeneous time-resolved fluorescence (HTRF) assay
# Experimental Parameters: absence of GTP, 4° C. for 3 hr, read-out: KRAS (G12C) binding
pIC50: −log10 of the molar value.

>  <Compound>
C=C(F)C(=O)N1CCN(c2nc(OC[C@@H]3CCCN3CCCOCCC(=O)NCc3ccc(-n4c(O)nnc4-c4cc(C(C)C)c(O)cc4O)cc3)nc3c2CCN(c2cccc4cccc(Cl)c24)C3)C[C@@H]1CC#N

>  <pIC50>
< 6.00

$$$$
>  <Compound>
C=CC(=O)N1CCN(c2nc(OC[C@@H]3CC[C@H](CN4CCN(Cc5ccc(-n6c(O)nnc6-c6cc(C(C)C)c(O)cc6O)cc5)CC4)N3C)nc3c2CCN(c2cccc4ccc(F)c(Cl)c24)C3)C[C@@H]1CC#N

>  <pIC50>
> 7.00

$$$$
>  <Compound>
C=CC(=O)N1CCN(c2nc(OC[C@@H]3C[C@H](N4CCC5(CCN(C(=O)C6CCN(Cc7ccc(-n8c(O)nnc8-c8cc(C(C)C)c(O)cc8O)cc7)CC6)CC5)CC4)CN3C)nc3c2CCN(c2cccc4cccc(Cl)c24)C3)C[C@@H]1CC#N

>  <pIC50>
> 7.00

$$$$
>  <Compound>
C=CC(=O)N1CCN(c2nc(NCCC(=O)N3CCC(Cc4ccc(CN(C)Cc5ccc(-n6c(C(=O)NCC(F)(F)F)nnc6-c6cc(C(C)C)c(O)cc6O)cc5)cc4)CC3)nc3c2CCN(c2cc(O)cc4ccccc24)C3)CC1

>  <pIC50>
< 6.00

$$$$
>  <Compound>
C=CC(=O)N1CCN(c2nc(OC[C@@H]3CC[C@H](CN4CCN(C(=O)C5CCN(Cc6ccc(-n7c(O)nnc7-c7cc(C(C)C)c(O)cc7O)cc6)CC5)CC4)N3C)nc3c2CCN(c2cccc4cccc(Cl)c24)C3)C[C@@H]1CC#N

>  <pIC50>
> 7.00

$$$$
>  <Compound>
C=CC(=O)N1CCN(c2nc(OC[C@@H]3C[C@H](N4CCC(C(=O)N5CCN(Cc6ccc(-n7c(C(=O)NC)nnc7-c7cc(C(C)C)c(O)cc7O)cc6)CC5)CC4)CN3C)nc3c2CCN(c2cccc4cccc(Cl)c24)C3)C[C@@H]1CC#N

>  <pIC50>
> 7.00

$$$$
>  <Compound>
C=CC(=O)N1CCN(c2nc(OCC3(CN4CCN(Cc5ccc(-n6c(C(=O)NCC)nnc6-c6cc(C(C)C)c(O)cc6O)cc5)CC4)CC3)nc3c2CCN(c2cccc4cccc(Cl)c24)C3)C[C@@H]1CC#N

>  <pIC50>
> 7.00

$$$$
>  <Compound>
C=CC(=O)N1CCN(c2nc(OC[C@@H]3CN(C(=O)C4CCN(Cc5ccc(-n6c(O)nnc6-c6cc(C(C)C)c(O)cc6O)cc5)CC4)CCN3C)nc3c2CCN(c2cccc4cccc(Cl)c24)C3)C[C@@H]1CC#N

>  <pIC50>
6.00 to 7.00

$$$$
>  <Compound>
C=CC(=O)N1CCN(c2nc(OC[C@@H]3CCN(C(=O)c4cc(CC)c(O)cc4O)C3)nc3c2CCN(c2cccc4cccc(Cl)c24)C3)C[C@@H]1CC#N

>  <pIC50>
< 6.00

$$$$
